- MEASUREMENT PROTOCOL: Cytotoxicity against human NCI-H460/MX20 cells after 72 hrs by MTT assay
- Format: cell-based
- MEASUREMENT CONDITIONS: NCI-H460/MX20, 72 h
MEASURE NAME: IC50

Q: Reported IC50 for COc1cccc(-n2nnc(-c3ccccc3NC(=O)Nc3ccc(N=C=S)cc3)n2)c1 : what is it?
A: > 100 µM

Q: Reported IC50 for COc1ccc(-n2nnc(-c3ccccc3NC(=O)Nc3ccc([N+](=O)[O-])cc3)n2)cc1 : what is it?
A: 28.5 µM

Q: Reported IC50 for COc1ccc(NC(=O)Nc2ccccc2-c2nnn(-c3ccc(OC)cc3)n2)cc1 : what is it?
A: 57.4 µM

Q: Reported IC50 for CCCc1ccc(C(=O)Nc2ccccc2-c2nnn(-c3cccc(OC)c3)n2)cc1 : what is it?
A: 40.6 µM

Q: Reported IC50 for CCCc1ccc(NC(=O)c2ccccc2NC(=O)c2ccc([N+](=O)[O-])cc2)cc1 : what is it?
A: > 100 µM

Q: Reported IC50 for COc1cccc(-n2nnc(-c3ccccc3NC(=O)Nc3cccc([N+](=O)[O-])c3)n2)c1 : what is it?
A: > 100 µM

Q: Reported IC50 for COc1cccc(-n2nnc(-c3ccccc3NC(=O)c3cccc([N+](=O)[O-])c3)n2)c1 : what is it?
A: 25.4 µM

Q: Reported IC50 for CCCc1ccc(NC(=O)c2ccccc2NC(=O)c2cccc([N+](=O)[O-])c2)cc1 : what is it?
A: > 100 µM

Q: Reported IC50 for COc1cccc(-n2nnc(-c3ccccc3NC(=O)Nc3ccc(N)cc3)n2)c1 : what is it?
A: > 100 µM

Q: Reported IC50 for COc1cccc(-n2nnc(-c3ccccc3NC(=O)Nc3ccc([N+](=O)[O-])cc3)n2)c1 : what is it?
A: > 100 µM

Q: Reported IC50 for COc1cccc(-n2nnc(-c3ccccc3NC(=O)Nc3ccc(NC(C)=O)cc3)n2)c1 : what is it?
A: > 100 µM

Q: Reported IC50 for CCCc1ccc(NC(=O)c2ccccc2NC(=O)c2ccccc2[N+](=O)[O-])cc1 : what is it?
A: > 100 µM

Q: Reported IC50 for COc1cccc(-n2nnc(-c3ccccc3NC(=O)c3ccc(N=[N+]=[N-])cc3)n2)c1 : what is it?
A: 21.5 µM

Q: Reported IC50 for CCCc1ccc(NC(=O)c2ccccc2NC(=O)Nc2ccc([N+](=O)[O-])cc2)cc1 : what is it?
A: > 100 µM

Q: Reported IC50 for COc1cccc(-n2nnc(-c3ccccc3NC(=O)Nc3ccccc3[N+](=O)[O-])n2)c1 : what is it?
A: > 100 µM

Q: Reported IC50 for COc1cccc(-n2nnc(-c3ccccc3NC(=O)c3ccccc3[N+](=O)[O-])n2)c1 : what is it?
A: 44.7 µM

Q: Reported IC50 for O=C(Nc1ccc([N+](=O)[O-])cc1)Nc1ccccc1C(=O)Nc1ccc(C(F)(F)F)cc1 : what is it?
A: > 100 µM

Q: Reported IC50 for COc1cccc(-n2nnc(-c3ccccc3NC(=O)c3ccc([N+](=O)[O-])cc3)n2)c1 : what is it?
A: > 100 µM

Q: Reported IC50 for COc1cccc(-n2nnc(-c3ccccc3NC(=O)c3ccc(N)cc3)n2)c1 : what is it?
A: > 100 µM

====

- MEASUREMENT PROTOCOL: Inhibition of ABCG2 in human H460/MX20 cells assessed as potentiation of mitoxantrone induced antiproliferative activity by measuring mitoxantrone IC50 at 1 uM preincubated for 2 hrs followed by mitoxantrone addition measured after 72 hrs by MTT assay (reference value: 6.161 +/- 0.172 microM)
Could you please mark 1 for values of IC50 below 1000 nM and 0 for values at or above it?

Q: API: query returns whether the compound falls strictly under 1000 nM in IC50. Query: COc1cccc(-n2nnc(-c3ccccc3NC(=O)Nc3ccc(N=C=S)cc3)n2)c1
A: 0

Q: API: query returns whether the compound falls strictly under 1000 nM in IC50. Query: CCCc1ccc(NC(=O)c2ccccc2NC(=O)c2ccc(OC)cc2)cc1
A: 0

Q: API: query returns whether the compound falls strictly under 1000 nM in IC50. Query: COc1cccc(-n2nnc(-c3ccccc3NC(=O)c3ccc(N=C=S)cc3)n2)c1
A: 0

Q: API: query returns whether the compound falls strictly under 1000 nM in IC50. Query: COc1cccc(-n2nnc(-c3ccccc3NC(=O)Nc3ccc([N+](=O)[O-])cc3)n2)c1
A: 1

Q: API: query returns whether the compound falls strictly under 1000 nM in IC50. Query: COc1cccc(-n2nnc(-c3ccccc3NC(=O)Nc3ccccc3[N+](=O)[O-])n2)c1
A: 0

Q: API: query returns whether the compound falls strictly under 1000 nM in IC50. Query: CCCc1ccc(NC(=O)c2ccccc2NC(=O)c2cccc([N+](=O)[O-])c2)cc1
A: 1

====

Consider the following molecules; for each one, report its pIC50.
- Tested on: NCI-H460
- MEASUREMENT PROTOCOL: Cytotoxicity against human H460 cells after 72 hrs by MTT assay
- Format: cell-based
- MEASUREMENT CONDITIONS: NCI-H460, 72 h
pIC50: −log10 of the molar value.

Q: Reported pIC50 for O=C(Nc1ccc([N+](=O)[O-])cc1)Nc1ccccc1C(=O)Nc1ccc(C(F)(F)F)cc1 : what is it?
A: < 4.00

Q: Reported pIC50 for COc1cccc(-n2nnc(-c3ccccc3NC(=O)Nc3ccc(N=[N+]=[N-])cc3)n2)c1 : what is it?
A: < 4.00

Q: Reported pIC50 for CCCc1ccc(NC(=O)c2ccccc2NC(=O)Nc2cccc([N+](=O)[O-])c2)cc1 : what is it?
A: < 4.00
